Some molecules, each annotated with its measured pIC50.
# System tested: Recombinant human cathepsin L (Homo sapiens, UniProt P07711)
# Construct: made in house
# Sequence (P07711 114-333): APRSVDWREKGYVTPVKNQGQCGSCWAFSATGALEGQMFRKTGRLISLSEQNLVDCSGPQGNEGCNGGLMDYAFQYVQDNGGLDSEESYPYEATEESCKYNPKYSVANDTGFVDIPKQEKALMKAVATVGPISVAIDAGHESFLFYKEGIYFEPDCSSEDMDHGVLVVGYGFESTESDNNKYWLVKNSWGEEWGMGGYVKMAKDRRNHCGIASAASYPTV
# Assay info: Recombinant cathepsin inhibition, gel-based competition with GB123 probe
# Assay type: biochemical
# Settings: Table S2; three independent competition gel-based experiments; read-out: CTSL (IC50)
pIC50: −log10 of the molar value.
Quantity: pIC50

- Smiles notation: "Cc1cccc(C)c1C(=O)OCC(=O)[C@H](CCCCN)NC(=O)[C@@H]1CCCN1C(=O)CNC(=O)OCc1ccccc1"
  Quantity: "pIC50"
  Observed measurement: "< 5.30"
- Smiles notation: "CC(C)C[C@H](N[C@@H](c1ccc(-c2ccc(S(C)(=O)=O)cc2)cc1)C(F)(F)F)C(=O)NCC(=O)COc1c(F)c(F)cc(F)c1F"
  Quantity: "pIC50"
  Observed measurement: 5.44
- Smiles notation: "CC(C)C[C@H](N[C@@H](c1ccc(-c2ccc(S(C)(=O)=O)cc2)cc1)C(F)(F)F)C(=O)NCC(=O)COC(=O)CNC(=O)OCC1c2ccccc2-c2ccccc21"
  Quantity: "pIC50"
  Observed measurement: "< 5.30"
- Smiles notation: "Cc1cccc(C)c1C(=O)OCC(=O)[C@H](CCCCN)NC(=O)[C@H](CC(C)C)NC(=O)CNC(=O)OCc1ccccc1"
  Quantity: "pIC50"
  Observed measurement: 5.80
- Smiles notation: "NCCCC[C@H](NC(=O)[C@@H]1CCCN1C(=O)CNC(=O)OCc1ccccc1)C(=O)COc1c(F)c(F)cc(F)c1F"
  Quantity: "pIC50"
  Observed measurement: "< 5.30"
- Smiles notation: "CC(C)C[C@H](N[C@@H](c1ccc(-c2ccc(S(C)(=O)=O)cc2)cc1)C(F)(F)F)C(=O)NCC(=O)CSc1c(F)c(F)cc(F)c1F"
  Quantity: "pIC50"
  Observed measurement: "< 5.30"

---

Some molecules, each annotated with its measured Ki.
# System tested: CTSK (Homo sapiens, UniProt P43235)
# Sequence (P43235 115-329): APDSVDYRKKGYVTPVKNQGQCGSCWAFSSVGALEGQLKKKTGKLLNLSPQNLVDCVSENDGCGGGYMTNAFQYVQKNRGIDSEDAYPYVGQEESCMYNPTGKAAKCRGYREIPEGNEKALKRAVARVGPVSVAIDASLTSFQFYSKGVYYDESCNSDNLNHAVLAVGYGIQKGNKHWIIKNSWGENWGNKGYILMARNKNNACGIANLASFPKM
# Assay info: Kinetic evaluation of recombinant cathepsin inhibition, fluorogenic substrate Z-FR-AMC
# Settings: irreversible inhibitors
Quantity: Ki (nM)

- Molecule: "CC(C)C[C@H](N[C@@H](c1ccc(-c2ccc(S(C)(=O)=O)cc2)cc1)C(F)(F)F)C(=O)NCC(=O)COC(=O)[C@@H]1CCCN1C(=O)[C@H](CC(C)C)NC(=O)OCC1c2ccccc2-c2ccccc21 [GD20]"
  Measurement units: "nM"
  Observed measurement: 13
- Molecule: "CC(C)C[C@H](N[C@@H](c1ccc(-c2ccc(S(C)(=O)=O)cc2)cc1)C(F)(F)F)C(=O)NCC(=O)COC(=O)[C@@H]1CCCN1C(=O)[C@H](CCC(N)=O)NC(=O)OCC1c2ccccc2-c2ccccc21 [GD38]"
  Measurement units: "nM"
  Observed measurement: 20.9

---

Some compounds, each annotated with its measured IC50.
# System tested: Recombinant human cathepsin B (Homo sapiens, UniProt P07858)
# Construct: made in house
# Assay info: Recombinant cathepsin inhibition, gel-based competition with GB123 probe
# Assay type: biochemical
# Settings: Table S2; three independent competition gel-based experiments; read-out: CTSB (IC50)
Quantity: IC50

- Compound: "CC(C)C[C@H](N[C@@H](c1ccc(-c2ccc(S(=O)(=O)NC(=O)OC(C)(C)C)cc2)cc1)C(F)(F)F)C(=O)NCC(=O)COC(=O)[C@@H]1CCCN1C(=O)[C@H](CC(C)C)NC(=O)OCC1c2ccccc2-c2ccccc21 [GD31]"
  System tested: "Recombinant human cathepsin B (Homo sapiens, UniProt P07858)"
  Observed measurement: "0.24 µM"
- Compound: "CC(C)(F)C[C@H](N[C@@H](c1ccc(-c2ccc(S(C)(=O)=O)cc2)cc1)C(F)(F)F)C(=O)NC1(C#N)CC1 [ODN, odanacatib, reference compound]"
  System tested: "Recombinant human cathepsin B (Homo sapiens, UniProt P07858)"
  Observed measurement: "> 10 µM"
- Compound: "NCCCC[C@H](NC(=O)[C@H](Cc1ccccc1)NC(=O)OCc1ccccc1)C(=O)CSc1c(F)c(F)cc(F)c1F [GD10]"
  System tested: "Recombinant human cathepsin B (Homo sapiens, UniProt P07858)"
  Observed measurement: "0.66 µM"
- Compound: "CC(C)C[C@H](N[C@@H](c1ccc(-c2ccc(S(C)(=O)=O)cc2)cc1)C(F)(F)F)C(=O)NCC(=O)COC(=O)[C@@H]1CCCN1C(=O)[C@H](CC(C)C)NC(=O)OCC1c2ccccc2-c2ccccc21 [GD20]"
  System tested: "Recombinant human cathepsin B (Homo sapiens, UniProt P07858)"
  Observed measurement: "> 10 µM"
- Compound: "Cc1cccc(C)c1C(=O)OCC(=O)CNC(=O)[C@H](CC(C)C)N[C@@H](c1ccc(-c2ccc(S(C)(=O)=O)cc2)cc1)C(F)(F)F [GD7]"
  System tested: "Recombinant human cathepsin B (Homo sapiens, UniProt P07858)"
  Observed measurement: "3.6 µM"
- Compound: "NCCCC[C@H](NC(=O)[C@@H]1CCCN1C(=O)CNC(=O)OCc1ccccc1)C(=O)COc1c(F)c(F)cc(F)c1F [GD14]"
  System tested: "Recombinant human cathepsin B (Homo sapiens, UniProt P07858)"
  Observed measurement: "0.8 µM"
- Compound: "CC(C)C[C@H](NC(=O)OCC1c2ccccc2-c2ccccc21)C(=O)N1CCC[C@H]1C(=O)OCC(=O)CNC(=O)[C@H](CC1CCCCC1)N[C@@H](c1ccc(-c2ccc(S(C)(=O)=O)cc2)cc1)C(F)(F)F [GD28]"
  System tested: "Recombinant human cathepsin B (Homo sapiens, UniProt P07858)"
  Observed measurement: "> 5 µM"
- Compound: "O=C(CNC(=O)[C@@H]1CCCN1C(=O)CNC(=O)OCc1ccccc1)CSc1c(F)c(F)cc(F)c1F [GD17]"
  System tested: "Recombinant human cathepsin B (Homo sapiens, UniProt P07858)"
  Observed measurement: "> 5 µM"
- Compound: "CC(C)C[C@H](N[C@@H](c1ccc(-c2ccc(S(C)(=O)=O)cc2)cc1)C(F)(F)F)C(=O)NCC(=O)COC(=O)CNC(=O)OCC1c2ccccc2-c2ccccc21 [GD27]"
  System tested: "Recombinant human cathepsin B (Homo sapiens, UniProt P07858)"
  Observed measurement: "> 5 µM"
- Compound: "C#CCNC(=O)[C@H](CC(C)C)N[C@@H](c1ccc(-c2ccc(S(=O)(=O)NC(=O)OC(C)(C)C)cc2)cc1)C(F)(F)F [GD33]"
  System tested: "Recombinant human cathepsin B (Homo sapiens, UniProt P07858)"
  Observed measurement: "> 20 µM"
- Compound: "CC(C)C[C@H](NC(=O)OCC1c2ccccc2-c2ccccc21)C(=O)N1CCC[C@H]1C(=O)OCC(=O)CNC(=O)[C@H](CCCCNC(=O)OC(C)(C)C)N[C@@H](c1ccc(-c2ccc(S(C)(=O)=O)cc2)cc1)C(F)(F)F [GD29]"
  System tested: "Recombinant human cathepsin B (Homo sapiens, UniProt P07858)"
  Observed measurement: "> 5 µM"
